# System: MCF7 breast
# test-method-notes: NCI-60 one-dose screen, 48 h
# condition-details: 10 µM unless noted
This is part of a sample that, as a whole, favours compounds with a hit. Of some 83,000 tested, about 20% had one in any assay. The source made the active and inactive calls. How the source made its calls: active means growth percent below 10; inactive means the rest.
Please state which outcome applies, choosing from active, inactive

{"columns": ["compound", "test-target", "discrete-label"],
 "data": [
  ["O=C(Nc1ccccc1Cl)c1ccc(NC2=C(Cl)C(=O)N(C3CCCCC3)C2=O)cc1", "MCF7 breast", "inactive"],
  ["C=C1C(=O)O[C@H]2[C@H]1CC/C(COC(=O)c1cc3cc(OC)ccc3[nH]1)=C\\CC[C@@]1(C)O[C@@H]21", "MCF7 breast", "active"],
  ["C=CC(=O)Nc1cccc(Nc2nc(SC)nc(-c3cccc([N+](=O)[O-])c3)c2C#N)c1", "MCF7 breast", "inactive"],
  ["CN1CCN(CCCOc2cccc3nc(Nc4ccc(Cl)c(F)c4)ccc23)CC1", "MCF7 breast", "active"],
  ["COC(=O)c1cccc(NC(=O)c2ccc(-c3cccc(N)c3)o2)c1", "MCF7 breast", "inactive"],
  ["NC(CSC(c1ccccc1)(c1ccccc1)c1ccc(Cl)cc1)C(=O)O (centres undefined)", "MCF7 breast", "active"],
  ["COc1ccc(S(=O)(=O)N2CCCCCC2)cc1NC(=O)c1[nH]c(C)c2c1CCCCC2=O", "MCF7 breast", "inactive"],
  ["COc1ccc(-n2nc(C)c3c(Nc4ccc(NC(=O)Nc5cccc(C(F)(F)F)c5)cc4)ncnc32)cc1", "MCF7 breast", "active"]
]}

Req: Hey, what did the test say about Cc1cc(C)c2nc3nc(C)cc(C)c3c(N)c2c1 ?
Resp: active

Req: Hey, what did the test say about O=C1/C(=C/c2cn(-c3ccccc3)nc2-c2ccccc2)SC(=S)N1CCc1ccccc1 ?
Resp: inactive

Req: Hey, what did the test say about CC(=O)c1cc(C(=O)c2ccc3c(c2)Sc2ccccc2N3)n2ccccc12 ?
Resp: inactive

Req: Hey, what did the test say about O=C(COc1cccc(/C=C2\COc3ccc(Cl)cc3C2=O)c1)c1ccc(Cl)cc1 ?
Resp: active

Req: Hey, what did the test say about CC(O)CN1CC(O)=C(c2nc3ccccc3s2)C1=N (centres undefined) ?
Resp: inactive

Req: Hey, what did the test say about COc1cc(C(=O)Oc2ccccc2OC(=O)c2cc(OC)c(OC)c(OC)c2)cc(OC)c1OC ?
Resp: inactive

###

# Tested on: NCI-H23 lung
# test-method-notes: NCI-60 one-dose screen, 48 h (100 = growth as untreated, 0 = no growth, -100 = all killed)
# condition-details: 10 µM unless noted
This is part of a sample that, as a whole, favours compounds with a hit. Of some 83,000 tested, about 20% had one in any assay.
Label 1.0 when growth is at or above 70%; otherwise label 0.0.

{"columns": ["smiles-string", "discrete-label"],
 "data": [
  ["Cc1ccccc1COc1ccc(-c2ccnn2-c2ccc(Cl)cc2)cc1", 1.0],
  ["Cc1cc(N2CCN(c3ccnc4cc(Cl)ccc34)CC2)nc(NC2CCCCC2)n1", 0.0],
  ["COc1ccc(-c2nn(-c3ccc(Cl)cc3)cc2-c2nc3ccccc3[nH]2)cc1", 1.0]
]}

Req: Can CC1=C[C@H]2c3c(c(O)c(O)c4oc5cc(O)ccc5c(=O)c34)[C@H](c3cc(O)c(O)c4oc5cc(O)ccc5c(=O)c34)[C@H]2C(C)(C)C1 be said to have growth at or above 70%?
Resp: 0.0

Req: Can CCCCn1c(-c2ccc(C(=O)O/N=C(\N)c3ccc4c(c3)OCO4)cc2)nc(-c2ccccc2)c1-c1ccccc1 be said to have growth at or above 70%?
Resp: 0.0

Req: Can COc1ccc(/C=C\c2cc(OC)c(OC)c(OC)c2)cc1OC(=O)c1cccc(Cn2cc(CCOC(=O)[C@H](N)Cc3cn(C)c4ccccc34)nn2)c1 be said to have growth at or above 70%?
Resp: 0.0

Req: Can CCOC(=O)n1cc(-c2nonc2-c2cn(C)c3ncccc23)c2cc(F)ccc21 be said to have growth at or above 70%?
Resp: 1.0
